assayed target: unphosphorylated-BTK kinase domain (UP-BTK), GST-tagged human BTK (389-659aa) (Homo sapiens (Human), UniProt Q06187)
Sequence (Q06187 389-659): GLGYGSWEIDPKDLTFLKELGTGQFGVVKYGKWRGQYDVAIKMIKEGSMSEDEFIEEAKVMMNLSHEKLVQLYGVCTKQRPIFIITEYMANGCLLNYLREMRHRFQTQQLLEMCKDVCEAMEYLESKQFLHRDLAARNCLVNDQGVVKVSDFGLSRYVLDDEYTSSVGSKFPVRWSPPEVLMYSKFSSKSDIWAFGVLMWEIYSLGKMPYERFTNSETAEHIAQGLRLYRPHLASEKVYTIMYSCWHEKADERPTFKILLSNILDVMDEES
assay method text: BTK kinase Lanthascreen binding assay
condition summary: unphosphorylated-BTK kinase domain, 60 minutes incubation, 50 nM Tracer 236; pIC50 = negative log of the IC50 in molar
Below, each of the compounds is paired with its reported BTK_I_binding pIC50 value.
Please state the value as a number alone, without comment.

Previously resolved entries follow.
C=CC(=O)N1CCC[C@@H](NC(=O)c2sc3nccc4c3c2NC(=O)N4c2cccc(N(C)C)c2)C1 [Example 943]
5.6
Cc1cc(Oc2ccccc2)ccc1N1C(=O)Nc2c(C(=O)N[C@@H]3CCCN(C(=O)CN4CCC4)C3)sc3nccc1c23 [Example 908]
6.7
N#C/C(=C\C1CC1)C(=O)N1CCC[C@H](NC(=O)c2sc3nccc4c3c2NC(=O)N4c2cccc(Oc3ccccc3)c2)C1 [Example 939]
6.0
CN1CCC(NC(=O)c2sc3nccc4c3c2NC(=O)N4c2ccc(Oc3ccccc3)cc2)CC1 [Example 920]
6.4

Name the recorded BTK_I_binding pIC50 for CN1CC[C@H](NC(=O)c2sc3nccc4c3c2NC(=O)N4c2ccc(Oc3ccccc3)cc2)C1 [Example 931] .
6.1

Given the entry CCC(=O)N1CCC(NC(=O)c2sc3nccc4c3c2NC(=O)N4c2ccc(Oc3ccccc3)cc2C)CC1 [Example 947] , report its measured BTK_I_binding pIC50.
5.4

Need BTK_I_binding pIC50 of COc1ccccc1Oc1ccc(N2C(=O)Nc3c(C(=O)NC4CCCN(C)C4)sc4nccc2c34)c(C)c1 (stereo not drawn) [Example 907] , thanks.
6.7

# input compound: O=C(N[C@H]1CCN(C(=O)c2ccccc2)C1)c1sc2nccc3c2c1NC(=O)N3c1ccc(Oc2ccccc2)cc1 [Example 940] ; wanted: its BTK_I_binding pIC50
5.9

====

assayed target: unphosphorylated-BTK kinase domain (UP-BTK), GST-tagged human BTK (389-659aa) (Homo sapiens (Human))
assay method text: BTK kinase Lanthascreen binding assay
condition summary: unphosphorylated-BTK kinase domain, 50 nM Tracer 236, 60 minutes; pIC50 = negative log of the IC50 in molar
Procedure: BTK Kinase Lanthascreen Binding Assay: A BTK kinase lanthascreen binding assay monitors compound binding to unphosphorylated-BTK kinase domain (UP-BTK), by competing with a fluorescent labeled tracer. […] Data were analyzed using Xlfit™ version 5.3 from ID Business Solutions (Guildford), Microsoft Excel add-in. pIC50 refers to the negative log of the IC50 in molar
We begin with a simple list: items and their reported BTK_I_binding pIC50.
Lab note: write the figure by itself, no unit.

Example molecules with recorded BTK_I_binding pIC50:
CN(C)C/C=C/C(=O)N1CCC[C@@H](NC(=O)c2sc3nccc4c3c2NC(=O)N4c2cccc(-c3ccccc3)c2)C1 [Example 573]
6.6
Cc1cc(Oc2ccccc2)ccc1N1C(=O)Nc2c(C(=O)N[C@@H]3CCCN(C(=O)[C@@H]4CCN4)C3)sc3nccc1c23 [Example 386]
6.9
Cc1cc(Oc2ccccc2)ccc1N1C(=O)Nc2c(C(=O)N(C)[C@@H]3CCN(C)C3)sc3nccc1c23 [Example 338]
5.4
Cc1cc(Oc2ccccc2)ccc1N1C(=O)Nc2c(C(=O)NCC(=O)N3CCOCC3)sc3nccc1c23 [Example 315]
6.9
Cc1cc(Oc2ccccc2)ccc1N1C(=O)Nc2c(C(=O)N[C@@H]3CCCN(C(=O)/C=C/CS(C)(=O)=O)C3)sc3nccc1c23 [Example 374]
7.0

So what does the record say about BTK_I_binding pIC50 for O=C(N[C@@H]1CCCNC1)c1sc2nccc3c2c1NC(=O)N3c1ccc(Oc2ccccc2)c(Cl)c1 [Example 581] ?
6.8

====

assayed target: unphosphorylated-BTK kinase domain (UP-BTK), GST-tagged human BTK (389-659aa) (Homo sapiens (Human))
assay method text: BTK kinase Lanthascreen binding assay
condition summary: unphosphorylated-BTK kinase domain, 50 nM Tracer 236, 60 minutes; pIC50 = negative log of the IC50 in molar
measured property: BTK_I_binding pIC50
A bare number is all that is needed in reply.

Known BTK_I_binding pIC50 results, listed for orientation:
C=CC(=O)N1CCC[C@@H](NC(=O)c2sc3nccc4c3c2NC(=O)N4c2cccc(C3CCC3)c2)C1
7.8
Cc1cc(Oc2ccccc2)ccc1N1C(=O)Nc2c(C(=O)N[C@@H]3CCCN(C(=O)CN4CCOCC4)C3)sc3nccc1c23
6.8
C=CC(=O)N1CCC[C@@H](NC(=O)c2sc3nccc4c3c2NC(=O)N4c2ccc(C)c(Cl)c2)C1
6.6
Cc1cc(Oc2ccccc2)ccc1N1C(=O)Nc2c(C(=O)NCCN3CCOC[C@H]3C)sc3nccc1c23
6.1
C=CC(=O)N1CCC[C@@H](NC(=O)c2sc3nccc4c3c2NC(=O)N4c2ccnc(-c3ccccc3)c2)C1
7.8

So what's the measured BTK_I_binding pIC50 for this one? C=CC(=O)N1C[C@H](NC(=O)c2sc3nccc4c3c2NC(=O)N4c2ccc(Oc3ccccc3)cc2C)[C@@H](O)C1 (relative stereo)
7.5

Recorded BTK_I_binding pIC50 of CN(C)CC(=O)N1CCC[C@@H](NC(=O)c2sc3nccc4c3c2NC(=O)N4c2ccc(Oc3ccccc3)c(Cl)c2)C1 , please.
7.1

I am curious: what BTK_I_binding pIC50 value has been reported for Cc1cc(Oc2ccccc2)ccc1N1C(=O)Nc2c(C(=O)N[C@@H]3CCCN(C(=O)CN4CCCCC4)C3)sc3nccc1c23 ?
6.8

Which measured BTK_I_binding pIC50 value corresponds to C=CC(=O)N1C[C@H](O)C[C@@H](NC(=O)c2sc3nccc4c3c2NC(=O)N4c2ccc(OC(C)C)cc2C)C1 ?
7.3

Please give the measured BTK_I_binding pIC50 for this compound: Cc1cc(Oc2ccccc2)ccc1N1C(=O)Nc2c(C(=O)N[C@@H]3CCN(C(=O)CCl)C3)sc3nccc1c23
8.0

Form field: reported BTK_I_binding pIC50 of CNCC(=O)N1CCC[C@@H](NC(=O)c2sc3nccc4c3c2NC(=O)N4c2ccc(Oc3ccccc3)cc2)C1
7.4

I have this compound here, Cc1ccc(-c2cccc(N3C(=O)Nc4c(C(=O)N[C@@H]5CCCNC5)sc5nccc3c45)c2)cc1 , and I need its recorded BTK_I_binding pIC50.
6.9

Quick one: BTK_I_binding pIC50 of O=C(N[C@H]1CNC[C@@H]1F)c1sc2nccc3c2c1NC(=O)N3c1ccc(Oc2ccccc2)cc1 ?
6.9

I have this compound here, C=CC(=O)N1CCC[C@@H](NC(=O)c2sc3nccc4c3c2NC(=O)N4c2cccc(C3CC3)c2)C1 , and I need its recorded BTK_I_binding pIC50.
7.0

Recorded BTK_I_binding pIC50 for Cc1cc(Oc2ccccc2)ccc1N1C(=O)Nc2c(C(=O)N[C@@H]3CCCN(C(=O)C(Cl)=CC4CC4)C3)sc3nccc1c23 (mixture of isomers) , please?
6.5

Any idea what its BTK_I_binding pIC50 is? The compound is C=CC(=O)N1CCC(CNC(=O)c2sc3nccc4c3c2NC(=O)N4c2ccc(Oc3ccccc3)cc2)C1 (stereo not shown)
7.0

====

assayed target: unphosphorylated-BTK kinase domain (UP-BTK), GST-tagged human BTK (389-659aa) (Homo sapiens (Human))
assay method text: BTK kinase Lanthascreen binding assay
condition summary: unphosphorylated-BTK kinase domain, 50 nM Tracer 236, 60 minutes; pIC50 = negative log of the IC50 in molar
Quick reference for BTK_I_binding pIC50 among some compounds
Answer as a number with no unit attached.

Sample records with BTK_I_binding pIC50:
C=CC(=O)N1CCC[C@@H](NC(=O)c2sc3nccc4c3c2NC(=O)N4c2cccc(C(C)=O)c2)C1 [Example 566]
6.6
Cc1cc(Oc2ccccc2)ccc1N1C(=O)Nc2c(C(=O)N[C@H]3CCCCN(Cc4ccccc4)C3=O)sc3nccc1c23 [Example 309]
6.0
C=CC(=O)N1CC[C@@H](N(C)C(=O)c2sc3nccc4c3c2NC(=O)N4c2ccc(Oc3ccccc3)cc2C)C1 (single isomer, unassigned) [Example 442]
6.9

Query (compound): CC(C)Oc1ccc(N2C(=O)Nc3c(C(=O)N[C@@H]4CCCN(C(=O)/C(C#N)=C/C5CC5)C4)sc4nccc2c34)cc1 [Example 399] ; field requested: BTK_I_binding pIC50
7.5

Fill in the blank: the reported BTK_I_binding pIC50 of O=C(N[C@@H]1CCCNC1)c1sc2nccc3c2c1NC(=O)N3c1ccc(-c2ccccc2)cc1 [Example 344] is ____.
5.0

Quick one: BTK_I_binding pIC50 for O=C(N[C@H]1CNC[C@@H]1O)c1sc2nccc3c2c1NC(=O)N3c1ccc(Oc2ccccc2)cc1 [Example 464] ?
6.8

Record request: BTK_I_binding pIC50 value, item C=CC(=O)N1CC[C@@H](NC(=O)c2sc3nccc4c3c2NC(=O)N4c2ccc(Oc3ccccc3)cc2C(F)(F)F)C1 [Example 324]
5.7

What value of measured BTK_I_binding pIC50 is listed for Cc1cc(Oc2ccccc2)ccc1N1C(=O)Nc2c(C(=O)NCC3CCN(C)C3)sc3nccc1c23 (centres unmarked) [Example 282] ?
6.2

State the recorded BTK_I_binding pIC50 for this entry: C=CC(=O)N1CCC[C@@H](NC(=O)c2sc3nccc4c3c2NC(=O)N4c2ccc3ccccc3c2)C1 [Example 419]
5.7

Need BTK_I_binding pIC50, item Cc1cc(Oc2ccccc2)ccc1N1C(=O)Nc2c(C(=O)N[C@@H]3CCNC(C)C3)sc3nccc1c23 (single isomer, unassigned) [Example 435]
5.9

Give its BTK_I_binding pIC50 value. Item: C=CC(=O)N1CC[C@@H](NC(=O)c2sc3nccc4c3c2NC(=O)N4c2ccc(Oc3ccccc3)c(Cl)c2)C1 [Example 558]
7.7

Query (compound): C=CC(=O)N1CC(NC(=O)c2sc3nccc4c3c2NC(=O)N4c2ccc(Oc3ccccc3)cc2C)C1 [Example 496] ; field requested: BTK_I_binding pIC50
7.4

I'd like to know its BTK_I_binding pIC50. The compound in question is Cc1cc(Oc2ccccc2)ccc1N1C(=O)Nc2c(C(=O)N[C@@H]3CCCN(C(=O)/C(C#N)=C/C(C)(C)C)C3)sc3nccc1c23 (single isomer, unassigned) [Example 398]
6.6

Entry CN1CC[C@@H](NC(=O)c2sc3nccc4c3c2NC(=O)N4c2cccc(-c3ccccc3)c2)C1 [Example 587] : reported BTK_I_binding pIC50 = ?
6.5
